Cited source: the NIST ThermoML archive (doi:10.1016/j.jct.2011.06.016)

method: refractive index (Na D-line) (dimensionless)
experimental-context: 298.15 K; 101.33 kPa; Liquid; Standard Abbe refractometry
± gives the expanded uncertainty stated by the source.

compound | refractive index
CCCCCCCCCCCCCCCC(=O)OCC [ethyl hexadecanoate] | 1.437 ± 0.001
OCC(O)CO [glycerol] | 1.471 ± 0.001
O [water] | 1.333 ± 0.001
CCO [ethanol] | 1.3625 ± 0.0007
